target-system: rM4 receptors (Rattus norvegicus, UniProt P08485)
Sequence (P08485 whole entry): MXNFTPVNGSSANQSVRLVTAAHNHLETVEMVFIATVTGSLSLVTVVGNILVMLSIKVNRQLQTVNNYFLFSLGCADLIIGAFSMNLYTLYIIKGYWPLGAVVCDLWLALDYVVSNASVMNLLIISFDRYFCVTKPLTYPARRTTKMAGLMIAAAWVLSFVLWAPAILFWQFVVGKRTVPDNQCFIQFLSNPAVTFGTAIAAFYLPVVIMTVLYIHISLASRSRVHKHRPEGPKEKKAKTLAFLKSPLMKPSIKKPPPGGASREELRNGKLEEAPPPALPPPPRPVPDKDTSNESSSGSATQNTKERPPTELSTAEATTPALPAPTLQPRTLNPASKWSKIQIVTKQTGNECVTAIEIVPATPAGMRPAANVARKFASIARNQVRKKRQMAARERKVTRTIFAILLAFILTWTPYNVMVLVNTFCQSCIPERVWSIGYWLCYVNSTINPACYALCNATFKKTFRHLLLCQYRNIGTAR
assay-remarks: Rat M4 PAM PERK assay (CHO cells, TR-FRET, with EC20 acetylcholine)
value-kind: EC50

// each compound listed below needs its EC50
1. Cc1c2c(n(C)c(=O)c1C)CN(C(=O)CC1CN(c3ccc(C4CC4)c(F)c3)C1C)C2 (single isomer, unassigned) [Compound I-62]
2. Cc1c2c(n(C)c(=O)c1Cl)CN(C(=O)C(C)C1CN(c3ccnc(C(F)(F)F)c3)C1)C2 (single isomer, unassigned) [Compound I-82]
3. Cc1cc(=O)n(C)c2c1CN(C(=O)CC1CN(c3cnc(C(F)(F)F)nc3)C1)C2
4. Cc1cc(=O)n(C)c2c1CN(C(=O)CC1CN(c3nc(C4CC4)ns3)C1)C2
5. Cc1cc(=O)n(C)c2c1CN(C(=O)CC1CN(c3ccc(C#N)cc3)C1)C2

1. 200 to 1000 nM
2. > 1000 nM
3. 50 to 200 nM
4. 50 to 200 nM
5. 50 to 200 nM

// each compound listed below needs its EC50
1. Cc1cc(=O)n(C)c2c1CN(C(=O)CC1CN(c3ccccn3)C1)C2
2. Cc1cc(=O)n(C)c2c1CN(C(=O)CC1CN(c3ccc(C4CC4)cc3)C1)C2
3. Cc1c2c(n(C)c(=O)c1C)CN(C(=O)CC1CN(c3cc(F)cc(F)c3)C1)C2
4. Cc1cc(=O)n(C)c2c1CN(C(=O)CC1CN(c3ncns3)C1)C2

["200 to 1000 nM", "50 to 200 nM", "50 to 200 nM", "> 1000 nM"]

====

target-system: hM4 receptors (Homo sapiens)
Sequence (P08173 1-479): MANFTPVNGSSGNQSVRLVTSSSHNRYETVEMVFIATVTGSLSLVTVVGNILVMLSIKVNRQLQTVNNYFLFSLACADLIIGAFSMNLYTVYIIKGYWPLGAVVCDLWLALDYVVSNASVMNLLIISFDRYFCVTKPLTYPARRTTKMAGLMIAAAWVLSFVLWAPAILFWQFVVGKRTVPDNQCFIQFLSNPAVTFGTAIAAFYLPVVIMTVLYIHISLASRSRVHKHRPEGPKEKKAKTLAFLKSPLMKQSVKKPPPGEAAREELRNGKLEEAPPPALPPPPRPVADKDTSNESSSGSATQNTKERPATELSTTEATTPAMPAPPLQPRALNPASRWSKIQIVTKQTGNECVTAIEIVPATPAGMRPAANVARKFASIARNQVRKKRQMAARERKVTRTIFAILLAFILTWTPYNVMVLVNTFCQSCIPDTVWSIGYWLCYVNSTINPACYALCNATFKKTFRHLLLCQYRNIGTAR
assay-remarks: Human M4 PAM PERK assay (CHO cells, TR-FRET, with EC20 acetylcholine)
pEC50: −log10 of the molar value.
Assign pEC50 to each entry below.

# example entries with known answers
compound	pEC50
Cc1cc(=O)n(C)c2c1CN(C(=O)CC1CN(c3cnnc(C(F)(F)F)c3)C1)C2 [Compound I-30]	6.70 to 7.30
Cc1c2c(n(C)c(=O)c1F)CN(C(=O)CC1CN(c3ccc(F)c(C(F)(F)F)c3)C1)C2 [Compound I-89]	6.70 to 7.30
Cc1cc(=O)n(C)c2c1CN(C(=O)CC1CN(c3ccnc(C(F)(F)F)n3)C1)C2 [Compound I-23]	6.00 to 6.70
Cc1c2c(n(C)c(=O)c1Cl)CN(C(=O)CC1CN(c3cccnc3)C1)C2 [Compound I-67]	> 7.30
Cc1c2c(n(C)c(=O)c1C)CN(C(=O)CC1CN(c3ccc(C#N)cc3)C1)C2 [Compound I-45]	> 7.30
Cc1cc(=O)n(C)c2c1CN(C(=O)CC1CN(c3ncns3)C1)C2 [Compound I-18]	6.00 to 6.70
Cc1cc(=O)n(C)c2c1CN(C(=O)C(C)(C)C1CN(c3ccnc(C(F)(F)F)c3)C1)C2 [Compound I-41]	< 6.00
Cc1c2c(n(C)c(=O)c1C)CN(C(=O)CC1CN(c3cccc(F)c3F)C1)C2 [Compound I-48]	> 7.30

// each compound listed below needs its pEC50
1. Cc1cc(=O)n(C)c2c1CN(C(=O)CC1CN(c3cccc(F)c3C)C1)C2 [Compound I-33]
2. Cc1c2c(n(C)c(=O)c1C)CN(C(=O)CC1CN(c3ccc(OC(F)(F)F)cc3)C1)C2 [Compound I-52]
3. COc1cc(N2CC(CC(=O)N3Cc4c(C(F)(F)F)cc(=O)n(C)c4C3)C2)ccn1 [Compound I-92]

["6.70 to 7.30", "6.70 to 7.30", "6.00 to 6.70"]

====

target-system: hM4 receptors (Homo sapiens, UniProt P08173)
assay-remarks: Human M4 PAM PERK assay (CHO cells, TR-FRET, with EC20 acetylcholine)
Description: Chinese hamster ovary (CHO) cells expressing either hM4 or rM4 receptors were frozen in assay ready vials (5×10^6 cells/vial) after bulking-up in culture. The day before an assay, vial(s) were thawed and cells seeded in 384 well white proxiplates at 1000/well for hM4 cells and at 2000/well for rM4 cells, in 10 μL of growth media (Hams/F12 with glutamax and 10% FCS) and incubated overnight at 37° C./5% CO2. […]
value-kind: EC50

molecule	recorded-value
Cc1c2c(n(C)c(=O)c1Cl)CN(C(=O)CC1CN(c3ccc(C(F)(F)F)nc3)C1)C2	< 50 nM

// each molecule listed below needs its EC50
1. Cc1cc(=O)n(C)c2c1C(C)N(C(=O)CC1CN(c3ccnc(C(F)(F)F)c3)C1)C2 (racemic) [Compound I-113]
2. Cc1cc(=O)n(C)c2c1CN(C(=O)CC1CN(c3ccc(C#N)cc3)C1)C2
3. Cc1cc(=O)n(C)c2c1CN(C(=O)CC1CN(c3cnc(C(F)(F)F)nc3)C1)C2

["> 1000 nM", "< 50 nM", "200 to 1000 nM"]

Cited source for all entries: patent US20260209220A1
